Test system: BT-549 breast
assay_protocol: NCI-60 one-dose screen, 48 h
experimental_parameters: 10 µM unless noted
This is part of a sample that, as a whole, favours compounds with a hit. Of some 83,000 tested, about 20% had one in any assay. Active and inactive are the calls of the source. Rule for the calls: active = growth percent below 10; inactive = the rest.
Labels: Y (active), N (inactive)

> print(dat)
                                    molecule  category.label
 1  O=C(NCc1ccc2c(c1)OCO2)NCC1CCCC(CNC(=O)NCc2ccc3c(c2)OCO3)C1 (stereo not given)               N
 2  CC[C@H](Nc1nc(N)nc(C)c1C#N)c1nc2cccc(NCCCCCC(=O)NO)c2c(=O)n1-c1ccccc1               N
 3  COc1ccc2c(O)c(/C=C3\N=Nc4ccccc43)oc2c1C[C@H]1CCNC[C@H]1F               N
 4  O=C(Cn1nnc2ccccc21)Nc1ccc(-c2nc3ccccc3s2)cc1               N
 5  O=C(Nc1nc(C(=O)N2CCN(C(c3ccccc3)c3ccccc3)CC2)cs1)c1ccc(NC2CCCCC2)c([N+](=O)[O-])c1               N
 6  O=C1NC(=C(Cl)Cl)/C(=N/S(=O)(=O)NCCc2c[nH]c3ccccc23)N1               Y
 7  COc1ccccc1NC(=O)c1ccc(/C=C/C(=O)c2nccn2C)cc1               Y
 8  COc1cc2c(/C=C3\C(=O)Nc4ccccc43)c(C(=O)O)[nH]c2cc1C               N
 9  CC1COCC(C)N1C1=C(Cl)C(=O)c2ccccc2C1=O (stereo not given)               N
10    Oc1c(CN2CCCC2)cc(COCc2ccccc2)c2cccnc12               N
11  Cc1c2cnccc2c(C)c2c1c1cc(C3OCCCO3)ccc1n2C               Y
12  COc1ccc(C/C(C)=C(\c2ccc(O)cc2)c2ccc(OCCN3CCCC3)cc2)cc1               N
13  COC(c1ccc2ccccc2c1)C(C)C(F)F (stereo not given)               N
14    N=C(N)c1ccc(-c2ccc(-c3ccc(Cl)cc3)o2)o1               N
15  COc1ccc(-c2oc(=O)ccc2-c2cc(OC)c(OC)c(OC)c2)cc1O               N
16  CN1CCN(CCCOc2ccc3ncnc(Nc4ccc(Oc5cccc(F)c5)c(Cl)c4)c3c2)CC1               N
17  COC(=O)c1nc(-c2ccccc2)oc1S(=O)(=O)N1CCC(C(N)=O)CC1               N
18  O=C1NC(=C(Cl)Cl)/C(=N/S(=O)(=O)N2CCCCC2)N1               N
19              O=C(CBr)CN1C(=O)c2ccccc2C1=O               N
20  CCN1C(=O)N(CC)C2C1NN=c1s/c(=C\c3cc4ccccc4[nH]3)c(=O)n12 (stereo not given)               N
21  C/C(=C(/c1ccc(Cl)cc1)c1ccc(OCCCN(C)C)cc1)c1ccc(Cl)cc1               N
22                     NNC(=S)N/N=C/c1ccccn1               N
23  N=c1sc(Cc2cc(Cl)ccc2Cl)cn1CC(=O)c1ccccc1               N
24  CC(O)c1ncc(/C=C2\SC(=S)N(Cc3ccccc3)C2=O)s1 (stereo not given)               N
25  CCN(CC)c1ccc(N2C(=O)/C(=C/c3cccs3)SC2=S)cc1               N
26  Cn1ccnc1C(=O)/C=C/c1ccc(C(=O)Nc2ccc(F)cc2)cc1               Y
27  CCCCn1sc(=O)n(Cc2ccc(CNC(=O)OCc3ccc4c(Br)cc(Br)c(O)c4n3)cc2)c1=O               Y
28  COc1cc(-c2cc(-c3ccc(Nc4ncnc5cc(Cl)ccc45)cc3)nc(N3CCN(C)CC3)n2)cc(OC)c1OC               N
29  COc1ccc(C2=CN3CC=CCC3CC2=O)cc1 (stereo not given)               N
30  CCN(CC)S(=O)(=O)c1ccc(S(=O)(=O)N2CCC[C@@H](C(=O)N3CCN(C(=O)OC(C)(C)C)CC3)C2)cc1               N
31  Cn1cc(-c2nonc2-c2c[nH]c3ccc(F)cc23)c2cc(Br)ccc21               N
32  Oc1c(I)cc(-c2nc3ccccc3s2)cc1CN(Cc1ccccn1)Cc1ccccn1               N
33  COc1ncc2cc1NS(=O)(=O)c1cccc(c1)C(=O)NCC1=CC=C(S1)c1ncnc3c1SC2=C3C               Y
34  CCN(CCO)CC(C)Nc1ccc([N+](=O)[O-])c2sc3ccccc3c(=O)c12 (stereo not given)               N
35  CCNC(=O)Oc1ccc(/C(=C(/C)Cc2ccc(OC)cc2)c2ccc(OCCN3CCCC3)cc2)cc1               N
36  COC(=O)c1c2c(n3ccc(C)cc13)C(=O)c1ccccc1C2=O               N
37  Cc1ccc(-c2csc(NC(=O)N3CCN(c4cc5c(cc4F)c(=O)c(C(=O)O)cn5C4CC4)CC3)n2)cc1               Y
38  COc1ccc(Cl)cc1Nc1nc(C(F)(F)F)ccc1C(=O)N/N=C/c1ccccc1Cl               N
39  C/C(=C(\c1ccc(OCCN2CCCCCC2)cc1)c1ccc(OC(=O)Cc2ccccc2)cc1)c1ccc(Cl)cc1               N
40  Cc1cc(F)ccc1S(=O)(=O)Nc1cc(-c2c(O)ccc3ccccc23)c(O)c2ccccc12               N
